Kindly state EC50, CellTiter-Glo for each of the entries shown.
- Test system: MCF-10A
- measurement.setup: 72 h
# do not omit the unit; it follows the number

Lab note: need EC50, CellTiter-Glo for Nc1nccc(-c2c(-c3ccc(F)cc3)ncn2C2CCCCC2)n1 on MCF-10A, anyone have it?
9770 nM

And for FC(F)c1nc2ccccc2n1-c1nc(N2CCOCC2)nc(N2CCOCC2)n1 ?
540 nM

And for COC(=O)C[C@](O)(CCCC(C)(C)O)C(=O)O[C@@H]1C(OC)=C[C@]23CCCN2CCc2cc4c(cc2[C@H]13)OCO4 ?
116 nM

And for C[C@@]1(C(=O)Nc2ccc(F)nc2)CCCN1c1nc(Nc2cc(C3CC3)n[nH]2)c2cccn2n1 ?
21.6 nM

And for COc1cccc2c1C(=O)c1c(O)c3c(c(O)c1C2=O)C[C@@](O)(C(C)=O)C[C@@H]3O[C@H]1C[C@H](N)[C@H](O)[C@H](C)O1 ?
633 nM

And for CN(c1ccccc1CNc1nc(Nc2ccc3c(c2)CC(=O)N3)ncc1C(F)(F)F)S(C)(=O)=O ?
1490 nM

And for CCS(=O)(=O)c1cccc(-c2cc(C(=O)NC3CCN(C)CC3)c(C)c3[nH]c4ncc(C)cc4c23)c1 ?
151 nM

* * *

- Test system: DU-4475
- test: normalised viability (% of control), CellTiter-Blue; higher = more viable cells (about 100 = DMSO control)
- measurement.setup: 0.3 nM; incubation time: 72 h
Kindly state normalised viability for each of the entries shown.

Which measured normalised viability value corresponds to CC(C)C[C@H](NC(=O)[C@H](Cc1ccccc1)NC(=O)c1cnccn1)B(O)O ?
113%

And for CCS(=O)(=O)c1cccc(-c2cc(C(=O)NC3CCN(C)CC3)c(C)c3[nH]c4ncc(C)cc4c23)c1 ?
94.7%

And for CCOc1cc2ncc(C#N)c(Nc3ccc(OCc4ccccn4)c(Cl)c3)c2cc1NC(=O)/C=C/CN(C)C ?
103%

And for CC(C)(C)c1cc(NC(=O)Nc2ccc(-c3cn4c(n3)sc3cc(OCCN5CCOCC5)ccc34)cc2)no1 ?
95.8%

And for Cn1cnc2c(F)c(Nc3ccc(Br)cc3F)c(C(=O)NOCCO)cc21 ?
100%

* * *

Kindly state normalised viability for each of the entries shown.
- Test system: HDQ-P1
- test: normalised viability (% of control), CellTiter-Blue; higher = more viable cells (about 100 = DMSO control)
- measurement.setup: incubation time: 72 h
Respond with the bare value in %.

Which measured normalised viability value corresponds to CN1CCN(c2ccc3nc(-c4c(N)c5c(F)cccc5[nH]c4=O)[nH]c3c2)CC1 [Dovitinib] (10000 nM) ?
96.4

And for O=P(O)(NCCCl)NCCCl [Ifosfamide mustard] (10000 nM) ?
105

And for CCCC(CCC)C(=O)O [Valproic acid] (10000 nM) ?
125

And for C[C@@H]1C=C2C(=O)O[C@@H]3CC[C@H](C1)[C@]23O [Galiellalactone] (50000 nM) ?
41.7

And for COC1=CC(c2cc3ccccc3[nH]2)=N/C1=C\c1[nH]c(C)cc1C [Obatoclax] (10000 nM) ?
35.5

And for CCS(=O)(=O)c1cccc(-c2cc(C(=O)NC3CCN(C)CC3)c(C)c3[nH]c4ncc(C)cc4c23)c1 [TAK-901] (1000 nM) ?
16.6

* * *

Kindly state normalised response for each of the entries shown.
- Test system: HCC1143
- test: normalised response (% of control), CellTiter-Glo; higher = more viable cells (100 = DMSO, 0 = benzethonium chloride kill control)
- measurement.setup: incubation time: 72 h
Respond with the bare value in %.

Which measured normalised response value corresponds to COC1=CC(c2cc3ccccc3[nH]2)=N/C1=C\c1[nH]c(C)cc1C [Obatoclax] (1000 nM) ?
87.4

And for CS(=O)(=O)CCNCc1ccc(-c2ccc3ncnc(Nc4ccc(OCc5cccc(F)c5)c(Cl)c4)c3c2)o1 [Lapatinib] (1 nM) ?
105

And for CCS(=O)(=O)c1cccc(-c2cc(C(=O)NC3CCN(C)CC3)c(C)c3[nH]c4ncc(C)cc4c23)c1 [TAK-901] (0.1 nM) ?
108

And for COc1cccc2c1C(=O)c1c(O)c3c(c(O)c1C2=O)C[C@@](O)(C(C)=O)C[C@@H]3O[C@H]1C[C@H](N)[C@H](O)[C@H](C)O1 [Daunorubicin] (1 nM) ?
109

And for Cc1cc(C(C)Nc2ccccc2)c2nc(N3CCOCC3)cc(=O)n2c1 (centres undefined) [TGX-221] (10 nM) ?
102

And for COc1ccc(C2=N[C@@H](c3ccc(Cl)cc3)[C@@H](c3ccc(Cl)cc3)N2C(=O)N2CCNC(=O)C2)c(OC(C)C)c1 [Nutlin-3] (10 nM) ?
106

And for CS(=O)(=O)CCNCc1ccc(-c2ccc3ncnc(Nc4ccc(OCc5cccc(F)c5)c(Cl)c4)c3c2)o1 [Lapatinib] (0.1 nM) ?
99.2

And for FC(F)c1nc2ccccc2n1-c1nc(N2CCOCC2)nc(N2CCOCC2)n1 [ZSTK474] (10 nM) ?
97.6

And for O=c1[nH]c(=O)n([C@H]2C[C@H](O)[C@@H](CO)O2)cc1F [Floxuridine] (1 nM) ?
97.6

And for CS(=O)(=O)OCCCCOS(C)(=O)=O [Busulfan] (10 nM) ?
99.3

And for CC(=O)O[C@H]1C(=O)[C@@]2(C)[C@H]([C@H](OC(=O)c3ccccc3)[C@]3(O)C[C@H](OC(=O)[C@H](O)[C@@H](NC(=O)c4ccccc4)c4ccccc4)C(C)=C1C3(C)C)[C@]1(OC(C)=O)CO[C@@H]1C[C@@H]2O [Paclitaxel] (0.1 nM) ?
93.6

And for COc1cc(Nc2ncc(F)c(Nc3ccc4c(n3)NC(=O)C(C)(C)O4)n2)cc(OC)c1OC [Tamatinib] (10 nM) ?
108

And for COC(=O)C[C@](O)(CCCC(C)(C)O)C(=O)O[C@@H]1C(OC)=C[C@]23CCCN2CCc2cc4c(cc2[C@H]13)OCO4 [Omacetaxine] (1000 nM) ?
14.5

And for CCCC(CCC)C(=O)O [Valproic acid] (100 nM) ?
102

* * *

Kindly state normalised response for each of the entries shown.
- Tested on: CAL-148
- test: normalised response (% of control), CellTiter-Glo; higher = more viable cells (100 = DMSO, 0 = benzethonium chloride kill control)
- measurement.setup: incubation time: 72 h
Respond with the bare value in %.

Which measured normalised response value corresponds to CS(=O)(=O)CCNCc1ccc(-c2ccc3ncnc(Nc4ccc(OCc5cccc(F)c5)c(Cl)c4)c3c2)o1 [Lapatinib] (1000 nM) ?
96.3

And for C[C@@H]1CCN(C(=O)CC#N)C[C@@H]1N(C)c1ncnc2[nH]ccc12 [Tofacitinib] (5000 nM) ?
109

And for CCS(=O)(=O)c1cccc(-c2cc(C(=O)NC3CCN(C)CC3)c(C)c3[nH]c4ncc(C)cc4c23)c1 [TAK-901] (1000 nM) ?
92.8

And for O=C(c1ccc(OCCN2CCCCC2)cc1)c1c(-c2ccc(O)cc2)sc2cc(O)ccc12 [Raloxifene] (10000 nM) ?
99.4

And for Nc1nccc(-c2c(-c3ccc(F)cc3)ncn2C2CCCCC2)n1 (10000 nM) ?
110

And for CS(=O)(=O)OCCCCOS(C)(=O)=O [Busulfan] (100000 nM) ?
106

And for COc1ncc(-c2ccc3nccc(-c4ccnnc4)c3c2)cc1NS(=O)(=O)c1ccc(F)cc1F (1000 nM) ?
6.28

* * *

- Test system: MFM-223
- test: drug sensitivity score (DSS), CellTiter-Blue viability (DSS (AUC-based score)); higher = stronger viability inhibition; extreme values may be limits of the assay
- measurement.setup: incubation time: 72 h
measurement.kind: drug sensitivity score
Would you mind answering with just the numeric figure?

Which measured drug sensitivity score value corresponds to C[C@@H]1C=C2C(=O)O[C@@H]3CC[C@H](C1)[C@]23O ?
2.28

And for C#Cc1cccc(Nc2ncnc3cc(OC)c(OCCCCCCC(=O)NO)cc23)c1 ?
15.6

And for CCS(=O)(=O)c1cccc(-c2cc(C(=O)NC3CCN(C)CC3)c(C)c3[nH]c4ncc(C)cc4c23)c1 ?
10.3

And for CC(C)(C)c1cc(NC(=O)Nc2ccc(-c3cn4c(n3)sc3cc(OCCN5CCOCC5)ccc34)cc2)no1 ?
0

And for CCOc1cc2ncc(C#N)c(Nc3ccc(OCc4ccccn4)c(Cl)c3)c2cc1NC(=O)/C=C/CN(C)C ?
0

And for COC1=CC(c2cc3ccccc3[nH]2)=N/C1=C\c1[nH]c(C)cc1C ?
7.09

And for CC(=O)O[C@H]1C(=O)[C@@]2(C)[C@H]([C@H](OC(=O)c3ccccc3)[C@]3(O)C[C@H](OC(=O)[C@H](O)[C@@H](NC(=O)c4ccccc4)c4ccccc4)C(C)=C1C3(C)C)[C@]1(OC(C)=O)CO[C@@H]1C[C@@H]2O ?
15

And for c1ccc(C2CN3CCSC3=N2)cc1 (stereo not drawn) ?
0
